We begin with Ki values for 5-hydroxytryptamine receptor 2C (Rattus norvegicus, UniProt P08909), as collected from the published literature.

Sample answers from the record:
compound | target under test | measurement kind | result value
O=c1[nH]c2ccccc2c(=O)n1CCN1CCN(C(c2ccccc2)c2ccccc2)CC1 | 5-hydroxytryptamine receptor 2C (Rattus norvegicus, UniProt P08909) | Ki | 635 nM
CN1CCCCC1CCN1c2ccccc2Sc2ccc([S+](C)[O-])cc21 (single isomer, unassigned; 3) | 5-hydroxytryptamine receptor 2C (Rattus norvegicus, UniProt P08909) | Ki | 704 nM
O=[N+]([O-])c1ccc(S(=O)(=O)N2CCC(CN3CCC(c4noc5cc(F)ccc45)CC3)CC2)cc1 | 5-hydroxytryptamine receptor 2C (Rattus norvegicus, UniProt P08909) | Ki | 998 nM
COc1cc(NC(=O)Nc2ccc(Cl)c(Cl)c2)ccc1OC(CCN(C)C)c1ccccc1 (stereo not drawn) | 5-hydroxytryptamine receptor 2C (Rattus norvegicus, UniProt P08909) | Ki | 2.8 nM

Task item: I am curious: what Ki value has been reported for O=C(Nc1cccnc1)N1CCc2cc3sccc3cc21 ?
Reply: 7.94 nM

Task item: Lookup O=C(NCCCN1CCN(c2cccc3ccccc23)CC1)c1ccccn1
Reply: > 10000 nM

Task item: Lookup Fc1ccc(CC2CCN(CCCCc3ccccc3)CC2)cc1
Reply: 2740 nM

----------
We begin with Ki values for 5-hydroxytryptamine receptor 2C (Rattus norvegicus), as collected from the published literature.
Provide the reading as a plain figure in nM.

Sample answers from the record:
molecule | unit tag | result value
COc1ccc(CC2NCCc3c2[nH]c2c(C)c(C)ccc32)c(Br)c1OC (stereo unspecified) | nM | 8
CN(C)CCC(Oc1cccc(NC(=O)Nc2ccc3c(ccn3C)c2)c1)c1ccccc1 (stereo unspecified) | nM | 652
COc1ccc(NC(=O)Nc2ccc(Cl)c(Cl)c2)cc1OC(CCN(C)C)c1ccccc1 (stereo unspecified) | nM | 197

Could you now consider this next molecule?
Task item: I am curious: what Ki value has been reported for COc1ccccc1N1CCN(CCc2ccc3c(c2)sc(=O)n3CCN2CCC(C(=O)c3ccc(F)cc3)CC2)CC1 ?
Reply: 50
